ASSAY_SUMMARY: Plasma pharmacokinetics by LC-MS/MS
Format: in vivo, human
REPORTED_CONDITIONS: human, plasma, po, DL5-9: FdCyd 160 mg + THU 3000 mg oral (n=31); geom. mean (geom. SD); read-out: FdCyd Vz/F
REPORTED_PROPERTY: Vd/F (L)
Write the number in L without appending the unit.

In: Data request, read-out Vd/F, for `Nc1nc(=O)n([C@H]2C[C@H](O)[C@@H](CO)O2)cc1F`
Out: 114

---

ASSAY_SUMMARY: Plasma pharmacokinetics by LC-MS/MS
Type: in vivo, human
REPORTED_CONDITIONS: human, plasma, po, DL3: FdCyd 90 mg + THU 3000 mg oral (n=3); geom. mean (geom. SD); read-out: FdCyd t½ (converted)
Description: Blood specimens for PK analysis were collected on Cycle 1 Day 1 (C1D1) prior to THU administration and then at 15, 30, and 45 min and 1, 2, 3, 4, 5, and 6 h after THU administration, as well as on C1D2 and C1D3 prior to and 2 h after THU administration. […] All specimens for PK analysis were processed and analyzed by LC-MS/MS as described previously, and Phoenix WinNonlin software was used for data analysis.
REPORTED_PROPERTY: half-life (h)
Write the number in h without appending the unit.

In: Data request, read-out half-life, for `Nc1nc(=O)n([C@H]2C[C@H](O)[C@@H](CO)O2)cc1F`
Out: 1.1

---

ASSAY_SUMMARY: Plasma pharmacokinetics by LC-MS/MS
Format: in vivo, human
REPORTED_CONDITIONS: human, plasma; DL10-DL11: THU 6000 mg oral twice daily (n=11); geom. mean (geom. SD); read-out: THU Cmin24h
REPORTED_PROPERTY: concentration at 24 h (ng/mL)
Write the number in ng/mL without appending the unit.

In: Data request, read-out concentration at 24 h, for O=C1NC(O)CCN1[C@@H]1O[C@H](CO)[C@@H](O)[C@H]1O (stereo partly shown) [THU, tetrahydrouridine]
Out: 2520

---

ASSAY_SUMMARY: Plasma pharmacokinetics by LC-MS/MS
Assay type: in vivo, human
REPORTED_CONDITIONS: human, plasma, po, DL3: FdCyd 90 mg + THU 3000 mg oral (n=3); geom. mean (geom. SD); read-out: FdCyd AUC0-inf
REPORTED_PROPERTY: AUC(0-inf) (ng·h/mL)
Write the number in ng·h/mL without appending the unit.

In: Data request, read-out AUC(0-inf), for Nc1nc(=O)n([C@H]2C[C@H](O)[C@@H](CO)O2)cc1F [FdCyd, 5-fluoro-2’-deoxycytidine]
Out: 1060

---

ASSAY_SUMMARY: Plasma pharmacokinetics by LC-MS/MS
Assay type: in vivo, human
REPORTED_CONDITIONS: human, plasma, po, DL4: FdCyd 120 mg + THU 3000 mg oral (n=3); geom. mean (geom. SD); read-out: FdCyd Tmax
REPORTED_PROPERTY: Tmax (h)
Write the number in h without appending the unit.

In: Data request, read-out Tmax, for Nc1nc(=O)n([C@H]2C[C@H](O)[C@@H](CO)O2)cc1F [FdCyd, 5-fluoro-2’-deoxycytidine]
Out: 1.2

---

ASSAY_SUMMARY: Plasma pharmacokinetics by LC-MS/MS
Assay type: in vivo, human
REPORTED_CONDITIONS: human, plasma, po, DL3: FdCyd 90 mg + THU 3000 mg oral (n=3); geom. mean (geom. SD); read-out: FdCyd Vz/F
REPORTED_PROPERTY: Vd/F (L)
Write the number in L without appending the unit.

In: Data request, read-out Vd/F, for `Nc1nc(=O)n([C@H]2C[C@H](O)[C@@H](CO)O2)cc1F`
Out: 139

---

ASSAY_SUMMARY: Plasma pharmacokinetics by LC-MS/MS
Assay type: in vivo, human
REPORTED_CONDITIONS: human, plasma, oral; from previous clearance (142 mL/min/m^2) vs current Cl/F (123 L/h); read-out: FdCyd bioavailability in the current study
REPORTED_PROPERTY: bioavailability

In: Data request, read-out bioavailability, for Nc1nc(=O)n([C@H]2C[C@H](O)[C@@H](CO)O2)cc1F [FdCyd, 5-fluoro-2’-deoxycytidine]
Out: ~12%

---

ASSAY_SUMMARY: Plasma pharmacokinetics by LC-MS/MS
Assay type: in vivo, human
REPORTED_CONDITIONS: human, plasma, po, DL4: FdCyd 120 mg + THU 3000 mg oral (n=3); geom. mean (geom. SD); read-out: FdCyd Vz/F
REPORTED_PROPERTY: Vd/F (L)
Write the number in L without appending the unit.

In: Data request, read-out Vd/F, for `Nc1nc(=O)n([C@H]2C[C@H](O)[C@@H](CO)O2)cc1F`
Out: 62

---

ASSAY_SUMMARY: Plasma pharmacokinetics by LC-MS/MS
Assay type: in vivo, human
REPORTED_CONDITIONS: human, plasma, po, DL10: FdCyd 60 mg + THU 6000 mg oral (n=8); geom. mean (geom. SD); read-out: FdCyd Cmax
REPORTED_PROPERTY: Cmax (ng/mL)
Write the number in ng/mL without appending the unit.

In: Data request, read-out Cmax, for Nc1nc(=O)n([C@H]2C[C@H](O)[C@@H](CO)O2)cc1F [FdCyd, 5-fluoro-2’-deoxycytidine]
Out: 380

---

ASSAY_SUMMARY: Plasma pharmacokinetics by LC-MS/MS
Type: in vivo, human
REPORTED_CONDITIONS: human, plasma, po, DL5-9: FdCyd 160 mg + THU 3000 mg oral (n=31); geom. mean (geom. SD); read-out: FdCyd AUC0-inf
REPORTED_PROPERTY: AUC(0-inf) (ng·h/mL)
Write the number in ng·h/mL without appending the unit.

In: Data request, read-out AUC(0-inf), for `Nc1nc(=O)n([C@H]2C[C@H](O)[C@@H](CO)O2)cc1F`
Out: 1200

---

ASSAY_SUMMARY: Plasma pharmacokinetics by LC-MS/MS
Type: in vivo, human
REPORTED_CONDITIONS: human, plasma, po, All FdCyd doses + THU 3000 mg oral (n=44); geom. mean (geom. SD); read-out: FdCyd Tmax
REPORTED_PROPERTY: Tmax (h)
Write the number in h without appending the unit.

In: Data request, read-out Tmax, for `Nc1nc(=O)n([C@H]2C[C@H](O)[C@@H](CO)O2)cc1F`
Out: 1.3

---

ASSAY_SUMMARY: Plasma pharmacokinetics by LC-MS/MS
Type: in vivo, human
REPORTED_CONDITIONS: human, plasma, po, DL3: FdCyd 90 mg + THU 3000 mg oral (n=3); geom. mean (geom. SD); read-out: FdCyd Cmax
REPORTED_PROPERTY: Cmax (ng/mL)
Write the number in ng/mL without appending the unit.

In: Data request, read-out Cmax, for Nc1nc(=O)n([C@H]2C[C@H](O)[C@@H](CO)O2)cc1F [FdCyd, 5-fluoro-2’-deoxycytidine]
Out: 530

---

ASSAY_SUMMARY: Plasma pharmacokinetics by LC-MS/MS
Assay type: in vivo, human
REPORTED_CONDITIONS: human, plasma, po, All FdCyd doses + THU 3000 mg oral (n=44); geom. mean (geom. SD); read-out: FdCyd t½ (converted)
REPORTED_PROPERTY: half-life (min)
Write the number in min without appending the unit.

In: Data request, read-out half-life, for Nc1nc(=O)n([C@H]2C[C@H](O)[C@@H](CO)O2)cc1F [FdCyd, 5-fluoro-2’-deoxycytidine]
Out: 36

---

ASSAY_SUMMARY: Plasma pharmacokinetics by LC-MS/MS
Assay type: in vivo, human
REPORTED_CONDITIONS: human, plasma, po, 6000 mg, DL10-DL11: THU 6000 mg oral twice daily (n=11); geom. mean (geom. SD); read-out: THU Cmax
Procedure: Blood specimens for PK analysis were collected on Cycle 1 Day 1 (C1D1) prior to THU administration and then at 15, 30, and 45 min and 1, 2, 3, 4, 5, and 6 h after THU administration, as well as on C1D2 and C1D3 prior to and 2 h after THU administration. […] All specimens for PK analysis were processed and analyzed by LC-MS/MS as described previously, and Phoenix WinNonlin software was used for data analysis.
REPORTED_PROPERTY: Cmax (ng/mL)
Write the number in ng/mL without appending the unit.

In: Data request, read-out Cmax, for O=C1NC(O)CCN1[C@@H]1O[C@H](CO)[C@@H](O)[C@H]1O (stereo partly shown) [THU, tetrahydrouridine]
Out: 2340

---

ASSAY_SUMMARY: Plasma pharmacokinetics by LC-MS/MS
Assay type: in vivo, human
REPORTED_CONDITIONS: human, plasma; DL1-DL9: THU 3000 mg oral once daily (n=44); geom. mean (geom. SD); read-out: THU AUC0-6
REPORTED_PROPERTY: AUC(0-t)
Give your result as the value with the unit written after it.

In: Data request, read-out AUC(0-t), for O=C1NC(O)CCN1[C@@H]1O[C@H](CO)[C@@H](O)[C@H]1O (stereo partly shown) [THU, tetrahydrouridine]
Out: 6750 ng·h/mL
